# assay_details: Color co-ordinates (L*a*b*) of printed samples
# Format: physicochemical
# assay_conditions: state of the art dyes, Table 7
property_label: L*a*b*-value: a*

Some entries whose results are on file:
compound: Nc1ccc2cc(S(=O)(=O)O)c(N=Nc3ccc(N=Nc4cc(C(=O)O)cc(C(=O)O)c4)c4cc(S(=O)(=O)O)ccc34)c(O)c2c1 [Compound 25, reference compound]
value_reported: 11.7
//
compound: O=C(O)CCNc1ccc2cc(S(=O)(=O)O)c(N=Nc3ccc(N=Nc4cccc(C(=O)O)c4)c4ccc(S(=O)(=O)O)cc34)c(O)c2c1 [Compound 26, reference compound]
value_reported: 14.4
//
compound: Nc1ccc2cc(S(=O)(=O)O)cc(O)c2c1N=Nc1ccc(N=Nc2ccc(O)c(C(=O)O)c2)c2ccc(S(=O)(=O)O)cc12 [Compound 28, reference compound]
value_reported: 18.1

I = Nc1ccc2cc(S(=O)(=O)O)c(N=Nc3ccc(N=Nc4cc(C(=O)O)cc(C(=O)O)c4)c4ccc(S(=O)(=O)O)cc34)c(O)c2c1 [Compound 24, reference compound]
II = O=C(O)CCNc1ccc2cc(S(=O)(=O)O)c(N=Nc3ccc(N=Nc4ccc(C(=O)O)cc4)c4ccc(S(=O)(=O)O)cc34)c(O)c2c1 [Compound 27, reference compound]
Which record would sort first by descending L*a*b*-value: a*, I or II ? Please indicate the selected item by its label.
II

###

# assay_details: Color co-ordinates (L*a*b*) of printed samples
# Format: physicochemical
# assay_conditions: state of the art dyes, Table 7
property_label: L*a*b*-value: L*

Some entries whose results are on file:
compound: O=C(O)CCNc1ccc2cc(S(=O)(=O)O)c(N=Nc3ccc(N=Nc4cccc(C(=O)O)c4)c4ccc(S(=O)(=O)O)cc34)c(O)c2c1 [Compound 26, reference compound]
value_reported: 14.7
--
compound: O=C(O)CCNc1ccc2cc(S(=O)(=O)O)c(N=Nc3ccc(N=Nc4ccc(C(=O)O)cc4)c4ccc(S(=O)(=O)O)cc34)c(O)c2c1 [Compound 27, reference compound]
value_reported: 23.7

a = Nc1ccc2cc(S(=O)(=O)O)c(N=Nc3ccc(N=Nc4cc(C(=O)O)cc(C(=O)O)c4)c4ccc(S(=O)(=O)O)cc34)c(O)c2c1 [Compound 24, reference compound]
b = Nc1ccc2cc(S(=O)(=O)O)c(N=Nc3ccc(N=Nc4cc(C(=O)O)cc(C(=O)O)c4)c4cc(S(=O)(=O)O)ccc34)c(O)c2c1 [Compound 25, reference compound]
c = Nc1ccc2cc(S(=O)(=O)O)cc(O)c2c1N=Nc1ccc(N=Nc2ccc(O)c(C(=O)O)c2)c2ccc(S(=O)(=O)O)cc12 [Compound 28, reference compound]
Hey, can you sort those compounds up there by L*a*b*-value: L*, smallest first? Field: ranking. Enter the labels in the order requested.
b, c, a
(b: 10.6, c: 18.8, a: 27.0)

###

# assay_details: Absorption maximum in water
# Type: physicochemical
# assay_conditions: Table 6
property_label: HD max in water (nm)

compound: O=C(O)c1cc(N=Nc2ccc(N=Nc3c(S(=O)(=O)O)cc4ccc(NCCS(=O)(=O)O)cc4c3O)c3cc(S(=O)(=O)O)ccc23)cc(C(=O)O)c1 [Compound 16]
HD max in water / nm: 580

compound: O=S(=O)(O)CCNc1ccc2cc(S(=O)(=O)O)c(N=Nc3ccc(N=Nc4ccc(S(=O)(=O)O)cc4)c4cc(S(=O)(=O)O)ccc34)c(O)c2c1 [Compound 4]
HD max in water / nm: 577

compound: O=C(O)CCC(NC(=O)c1ccc(N=Nc2ccc(N=Nc3c(S(=O)(=O)O)cc4ccc(NCCS(=O)(=O)O)cc4c3O)c3cc(S(=O)(=O)O)ccc23)cc1)C(=O)O (stereo not drawn) [Compound 14]
HD max in water / nm: 576
